Here, each record is paired with measured inhibition at 10 µM data.
Molecular target: HDAC3 (Homo sapiens)
Construct: purchased Enzo Life Sciences
Sequence (O15379 whole entry): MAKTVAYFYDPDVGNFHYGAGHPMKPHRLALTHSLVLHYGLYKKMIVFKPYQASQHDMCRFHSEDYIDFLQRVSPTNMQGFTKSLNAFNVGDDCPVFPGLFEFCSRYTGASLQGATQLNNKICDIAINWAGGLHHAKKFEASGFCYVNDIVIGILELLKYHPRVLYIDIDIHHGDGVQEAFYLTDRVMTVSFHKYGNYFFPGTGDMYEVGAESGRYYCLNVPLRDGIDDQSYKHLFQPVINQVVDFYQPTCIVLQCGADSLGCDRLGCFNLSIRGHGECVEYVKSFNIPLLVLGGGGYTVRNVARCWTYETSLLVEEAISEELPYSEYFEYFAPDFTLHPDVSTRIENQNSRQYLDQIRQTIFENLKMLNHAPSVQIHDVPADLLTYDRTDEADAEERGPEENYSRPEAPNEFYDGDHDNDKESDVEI
Sequence (O75376 395-489 partner limits assumed): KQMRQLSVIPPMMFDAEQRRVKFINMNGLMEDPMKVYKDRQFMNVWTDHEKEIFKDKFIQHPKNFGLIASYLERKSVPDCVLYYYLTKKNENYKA
Test: HDAC Inhibition Screening Assay (FLUOR DE LYS Fluorimetric Drug Discovery Kit), HDAC3
Type: biochemical
Settings: 10 μM compound

[Q] Fill blank: measured inhibition at 10 µM of the compound CCN(CC)c1ccc(C(=O)NC2CCc3cc(/C=C/C(=O)NCCCCCC(=O)NO)ccc32)cc1 (centres unmarked) is ____.
[A] > 80%

[Q] What inhibition at 10 µM value was documented for this compound, CCN(CC)c1ccc(C(=O)NC2CCc3cc(/C=C/C(=O)NO)ccc32)cc1 (centres unmarked) ?
[A] > 80%

[Q] Entry Cc1[nH]c2ccccc2c1CCNC1CCCc2cc(/C=C/C(=O)NO)ccc21 (centres unmarked) : reported inhibition at 10 µM = ?
[A] > 80%

[Q] Return reported inhibition at 10 µM; argument: COc1ccc(CCNC2CCc3cc(/C=C/C(=O)Nc4ccc(F)cc4N)ccc32)cc1 (centres unmarked)
[A] > 80%

[Q] Reported inhibition at 10 µM, compound O=C(/C=C/c1ccc(COc2ccc3c(c2)CC/C(=C\c2cc(C(F)(F)F)cc(C(F)(F)F)c2)C3=O)cc1)NO : ____
[A] < 50%

[Q] Look at this compound and give its reported inhibition at 10 µM. O=C(/C=C/c1ccc2c(c1)CCC2NCCc1cc(C(F)(F)F)cc(C(F)(F)F)c1)NO (centres unmarked)
[A] > 80%

[Q] Returns the measured inhibition at 10 µM for the input compound. Input: CN(C)c1ccc(C(=O)NC2CCc3cc(/C=C/C(=O)NO)ccc32)cc1 (centres unmarked)
[A] > 80%

[Q] Value lookup for inhibition at 10 µM; key = Nc1cc(F)ccc1NC(=O)CCCCCCC(=O)NC1CCc2cc(/C=C/C(=O)Nc3cc(Cl)cc(Cl)c3)ccc21 (centres unmarked)
[A] < 50%

* * *

Below is a list of entries, each paired with its recorded inhibition at 10 µM value.
Molecular target: HDAC1 (Homo sapiens, UniProt Q13547)
Construct: purchased Enzo Life Sciences
Sequence (Q13547 whole entry): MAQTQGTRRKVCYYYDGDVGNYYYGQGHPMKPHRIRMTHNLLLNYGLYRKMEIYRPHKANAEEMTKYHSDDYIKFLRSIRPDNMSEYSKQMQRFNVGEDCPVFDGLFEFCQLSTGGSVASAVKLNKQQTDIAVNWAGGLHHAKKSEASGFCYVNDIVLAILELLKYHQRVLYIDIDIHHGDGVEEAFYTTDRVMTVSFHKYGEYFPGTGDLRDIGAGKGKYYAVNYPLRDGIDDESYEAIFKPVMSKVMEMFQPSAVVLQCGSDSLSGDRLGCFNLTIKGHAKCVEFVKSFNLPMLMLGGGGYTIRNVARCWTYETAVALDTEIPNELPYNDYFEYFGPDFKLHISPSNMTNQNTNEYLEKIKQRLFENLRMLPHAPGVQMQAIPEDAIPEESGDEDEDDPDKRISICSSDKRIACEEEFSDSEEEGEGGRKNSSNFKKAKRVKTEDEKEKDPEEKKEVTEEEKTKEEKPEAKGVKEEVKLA
Assay: HDAC Inhibition Screening Assay (FLUOR DE LYS Fluorimetric Drug Discovery Kit), HDAC1
Type: biochemical
Conditions: 10 μM compound
Experimental: The HDAC1/HDAC2/HDAC3 in vitro activities are detected by Enzo Life Sciences' HDAC1/HDAC2/HDAC3 Fluorimetric Drug Discovery Kit. The assay is based on the FLUOR DE LYS® Substrate and FLUOR DE LYS® Developer combination. The assay procedure has two steps. […] The signals of the test compounds (Compounds 1˜83; at concentrations of 2 μM, 10 μM and 50 μM) in 96-well plates are detected at 360 nm or 485 nm excitation and 460 nm or 530 nm emission with a Molecular Devices SpectraMax i3 Imaging Cytometer. […]

Answered cases to consult:
compound=O=C(CCCCC(=O)Nc1ccc2c(c1)CC/C(=C\c1cc(C(F)(F)F)cc(C(F)(F)F)c1)C2=O)NO assay_system="HDAC1 (Homo sapiens, UniProt Q13547)" experimental_value="50 to 80%"
compound="Nc1cc(F)ccc1NC(=O)CCCCCCC(=O)NC1CCc2cc(Br)ccc21 (stereo not shown)" assay_system="HDAC1 (Homo sapiens, UniProt Q13547)" experimental_value="< 50%"

[Q] Which inhibition at 10 µM value belongs to Nc1cc(F)ccc1NC(=O)CCCCCCC(=O)Nc1ccc2c(c1)CC/C(=C\c1cc(C(F)(F)F)cc(C(F)(F)F)c1)C2=O ?
[A] < 50%

[Q] // inhibition at 10 µM lookup, key: CCN(CC)c1ccc(C(=O)NC2CCc3cc(/C=C/C(=O)NCCCCCC(=O)NO)ccc32)cc1 (stereo not shown)
[A] > 80%

[Q] Fill in: inhibition at 10 µM of COc1ccc(S(=O)(=O)NC2CCc3cc(/C=C/C(=O)NO)ccc32)cc1 (stereo not shown) is ___
[A] > 80%

[Q] Record request: inhibition at 10 µM value, item O=C(/C=C/c1ccc2c(c1)CCC2NCCc1cc(Cl)cc(Cl)c1)NO (stereo not shown)
[A] > 80%

[Q] I would be grateful if you could share the reported inhibition at 10 µM for O=C(/C=C/c1ccc2c(c1)CCCC2NC(=O)c1cc(C(F)(F)F)cc(C(F)(F)F)c1)NO (stereo not shown) .
[A] < 50%
